Biological target: 11β-HSD1 (Homo sapiens, UniProt P28845)
Construct: adding 1 μg of human hepatic microsome (Xenotech); tissue Xenotech; host or cells: human liver microsomes
Sequence (P28845 whole entry): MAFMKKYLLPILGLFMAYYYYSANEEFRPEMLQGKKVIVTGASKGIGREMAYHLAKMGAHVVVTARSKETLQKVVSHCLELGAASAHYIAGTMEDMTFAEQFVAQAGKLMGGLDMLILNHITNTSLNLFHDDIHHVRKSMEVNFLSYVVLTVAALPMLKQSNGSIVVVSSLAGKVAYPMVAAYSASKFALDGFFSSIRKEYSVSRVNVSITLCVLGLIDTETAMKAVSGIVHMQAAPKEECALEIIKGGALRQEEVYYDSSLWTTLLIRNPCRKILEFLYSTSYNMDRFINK
Experiment: Human enzymatic activity of 11β-HSD1 from liver microsomes, cortisone to cortisol conversion, HTRF detection (inhibition %)
Assay type: biochemical
Details: 10^−6M inhibitor, read-out: 11β-HSD1/HTRF % inhib. (10^−6M)
reported metric: inhibition at 1 µM (%)
Give the number; % is assumed, so skip it.

# inhibition at 1 µM lookup, item CN1C(C(=O)c2cccc(Br)c2)=C(O)c2ccccc2S1(=O)=O
100

# inhibition at 1 µM lookup, item CCN1C(C(=O)c2ccc3ccccc3c2)=C(O)c2ccccc2S1(=O)=O
98

# inhibition at 1 µM lookup, item CN1C(C(=O)c2ccc3ccccc3c2)=C(O)c2ccc(F)cc2S1(=O)=O
100

# inhibition at 1 µM lookup, item CN1C(C(=O)c2ccc3ccccc3c2)=C(OC(=O)COc2ccccc2)c2ccccc2S1(=O)=O
100

# inhibition at 1 µM lookup, item CN1C(C(=O)c2ccc(Cl)c(Cl)c2)=C(O)c2ccccc2S1(=O)=O
100

# inhibition at 1 µM lookup, item CC(=O)OC1=C(C(=O)c2ccc3ccccc3c2)N(C)S(=O)(=O)c2ccccc21
100

# inhibition at 1 µM lookup, item CN1C(C(=O)c2ccc3ccccc3c2)=C(O)c2ccccc2S1(=O)=O
99

# inhibition at 1 µM lookup, item CCN1C(C(=O)c2ccc3ccccc3c2)=C(O)c2ccc(F)cc2S1(=O)=O
100

# inhibition at 1 µM lookup, item Cc1ccc(C(=O)C2=C(O)c3ccccc3S(=O)(=O)N2C)cc1
99

====

Target: 11β-HSD2 (Homo sapiens)
Construct: of human kidney microsomes (Xenotech); tissue Xenotech; host or cells: human kidney microsomes
Sequence (P80365 whole entry): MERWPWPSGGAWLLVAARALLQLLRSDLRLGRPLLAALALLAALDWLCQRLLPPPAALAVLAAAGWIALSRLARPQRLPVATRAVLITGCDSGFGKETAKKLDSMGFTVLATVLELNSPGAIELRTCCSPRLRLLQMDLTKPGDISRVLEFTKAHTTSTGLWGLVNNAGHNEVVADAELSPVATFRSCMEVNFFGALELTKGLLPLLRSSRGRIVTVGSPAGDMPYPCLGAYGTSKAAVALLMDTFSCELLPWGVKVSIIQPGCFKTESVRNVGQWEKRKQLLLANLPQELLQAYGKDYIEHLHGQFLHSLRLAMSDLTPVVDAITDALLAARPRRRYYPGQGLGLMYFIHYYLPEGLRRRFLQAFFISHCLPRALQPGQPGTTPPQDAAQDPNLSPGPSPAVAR
Assay: Human enzymatic activity of 11β-HSD2 from kidney microsomes, [3H]cortisol to [3H]cortisone conversion, SPA (inhibition %)
Type: biochemical
Settings: 10^−5M inhibitor, read-out: 11β-HSD2/SPA % inhib. (10^−5M)
Task for the reader: assign each of the following compounds its reported inhibition at 10 µM.
Give the number; % is assumed, so skip it.

# inhibition at 10 µM lookup, item CCN1C(C(=O)c2ccc3ccccc3c2)=C(O)c2ccc(F)cc2S1(=O)=O
25

# inhibition at 10 µM lookup, item Cc1ccc(C(=O)C2=C(O)c3ccccc3S(=O)(=O)N2C)cc1
33

# inhibition at 10 µM lookup, item CN1C(C(=O)c2ccc3ccccc3c2)=C(OC(=O)COc2ccccc2)c2ccccc2S1(=O)=O
71

# inhibition at 10 µM lookup, item CC(=O)OC1=C(C(=O)c2ccc3ccccc3c2)N(C)S(=O)(=O)c2ccccc21
63

# inhibition at 10 µM lookup, item CN1C(C(=O)c2ccc3ccccc3c2)=C(O)c2ccc(F)cc2S1(=O)=O
61

# inhibition at 10 µM lookup, item CN1C(C(=O)c2ccc(Cl)c(Cl)c2)=C(O)c2ccccc2S1(=O)=O
31

# inhibition at 10 µM lookup, item CCN1C(C(=O)c2ccc3ccccc3c2)=C(O)c2ccccc2S1(=O)=O
5

# inhibition at 10 µM lookup, item CN1C(C(=O)c2ccc3ccccc3c2)=C(O)c2ccccc2S1(=O)=O
42

====

Target: 11β-HSD1 (Homo sapiens, UniProt P28845)
Construct: adding 1 μg of human hepatic microsome (Xenotech); tissue Xenotech
Assay: Human enzymatic activity of 11β-HSD1 from liver microsomes, [3H]cortisone to [3H]cortisol conversion, SPA (inhibition % or EC50)
Task for the reader: assign each of the following compounds its reported pEC50.
On this scale, pEC50 is minus log10 of a concentration expressed in M (mol/L).

# pEC50 lookup, item Cc1ccc(C(=O)C2=C(O)c3ccccc3S(=O)(=O)N2C)cc1 [Example 3]
7.19

# pEC50 lookup, item CN1C(C(=O)c2ccc3ccccc3c2)=C(O)c2ccccc2S1(=O)=O [Example 1]
7.80

# pEC50 lookup, item CCN1C(C(=O)c2ccc3ccccc3c2)=C(O)c2ccccc2S1(=O)=O [Example 9]
7.22

# pEC50 lookup, item CC(=O)OC1=C(C(=O)c2ccc3ccccc3c2)N(C)S(=O)(=O)c2ccccc21 [Example 46]
7.14

# pEC50 lookup, item CN1C(C(=O)c2ccc3ccccc3c2)=C(O)c2ccc(F)cc2S1(=O)=O [Example 17]
7.96

# pEC50 lookup, item CN1C(C(=O)c2ccc(Cl)c(Cl)c2)=C(O)c2ccccc2S1(=O)=O [Example 123]
7.37

# pEC50 lookup, item CN1C(C(=O)c2ccc3ccccc3c2)=C(OC(=O)COc2ccccc2)c2ccccc2S1(=O)=O [Example 54]
7.57

# pEC50 lookup, item CN1C(C(=O)c2cccc(Br)c2)=C(O)c2ccccc2S1(=O)=O [Example 142]
7.68

# pEC50 lookup, item CCN1C(C(=O)c2ccc3ccccc3c2)=C(O)c2ccc(F)cc2S1(=O)=O [Example 18]
7.16
